Experiment: ATG_XTT_Cytotoxicity: Cytotoxicity Assessment in the Attagene TRANS-FACTORIAL HepG2 Assay (AID 2283584)
Inconclusive results are not listed. The source made the active and inactive calls. Rule for the calls: active = hit-call score of the fitted dose curve at least 0.9, where 1 is the maximum; inconclusive = response in the unintended direction; inactive = score below 0.9.
Your answer must be one of the following: true (1) (active), false (0) (inactive)

> print(dat)
                               molecule  assignedcategory
1            O=C=Nc1cccc2c(N=C=O)cccc12         false (0)
2                  COC(=O)c1ccc(C=O)cc1         false (0)
3                O=S(=O)(O)c1ccc(Cl)cc1         false (0)
4                            Brc1ccccn1         false (0)
5  CCCCCCCC/C=C\CCCCCCCC(=O)N(C)CC(=O)O          true (1)

Just curious, what result did `CCOC(OCC)OCC` get here?
false (0)

Just curious, what result did `CCCCCC/C=C/CCCCCCCC(=O)O` get here?
false (0)

Just curious, what result did `CCCCCCCCCc1ccc(OCCO)cc1` get here?
false (0)

---

Target: human Retinoid X Receptor beta (RXRb), RXRB (gene 6257) (UniProt P28702)
Sequence (P28702 whole entry, looked up): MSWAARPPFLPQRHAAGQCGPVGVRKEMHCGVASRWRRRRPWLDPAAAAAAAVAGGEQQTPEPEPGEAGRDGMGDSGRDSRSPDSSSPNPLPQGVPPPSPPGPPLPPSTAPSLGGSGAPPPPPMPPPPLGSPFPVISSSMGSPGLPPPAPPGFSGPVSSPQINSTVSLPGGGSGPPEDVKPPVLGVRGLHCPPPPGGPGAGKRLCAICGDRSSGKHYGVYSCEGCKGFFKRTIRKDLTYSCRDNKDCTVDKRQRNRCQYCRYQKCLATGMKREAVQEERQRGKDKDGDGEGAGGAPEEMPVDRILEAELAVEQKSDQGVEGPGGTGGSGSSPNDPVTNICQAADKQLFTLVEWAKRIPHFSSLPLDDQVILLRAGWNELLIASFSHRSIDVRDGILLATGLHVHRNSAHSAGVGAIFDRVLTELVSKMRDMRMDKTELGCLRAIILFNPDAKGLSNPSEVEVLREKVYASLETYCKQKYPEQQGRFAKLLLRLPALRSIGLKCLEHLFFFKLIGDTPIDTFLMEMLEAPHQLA
Assay: ATG_RXRb_TRANS: Attagene TRANS-FACTORIAL HepG2 Assay for human Retinoid X Receptor beta (RXRb) (AID 2283013)
Inconclusive results are not listed. Active and inactive are the calls of the source. The calls were made as follows: active = hit-call score of the fitted dose curve at least 0.9, where 1 is the maximum; inconclusive = response in the unintended direction; inactive = score below 0.9.
Your answer must be one of the following: 1 = active, 0 = inactive

Some entries whose results are on file:
> print(dat)
                                   molecule  assignedcategory
1  O=C(O)C(F)(F)C(F)(F)C(F)(F)OC(F)(C(F)(F)F)C(F)(F)F                 0
2  OCCCC(F)(F)C(F)(F)C(F)(F)C(F)(F)C(F)(F)C(F)(F)C(F)(F)C(F)(F)F                 1
3         CC(O)C#CC(C)O (centres undefined)                 0
4            O=C1c2ccccc2C(=O)c2c(Cl)cccc21                 1
5  C=CC(=O)OCCC(F)(F)C(F)(F)C(F)(F)C(F)(F)F                 0

Just curious, what result did `COCCOCCC[Si](C)(O[Si](C)(C)C)O[Si](C)(C)C` get here?
1

Just curious, what result did `O=C(c1ccccc1)c1ccc(Cl)cc1` get here?
1

---

Read-out: TIMP metallopeptidase inhibitor 1 (TIMP1), TIMP1 (gene 7076)
Assay: BSK_hDFCGF_TIMP1: BioMAP Diversity Plus: hDFCGF Assay for TIMP metallopeptidase inhibitor 1 (TIMP1) Biomarker Activity (AID 2283062)
Details: primary human foreskin fibroblasts; actives raise or lower the signal
Calls of active or inactive are those of the source. Rule for the calls: active = hit-call score of the fitted dose curve at least 0.9, where 1 is the maximum; inactive = score below 0.9.
Your answer must be one of the following: Yes (active), No (inactive)

> print(dat)
                                   molecule  assignedcategory
1                      CCN(CC)c1ccc(C=O)cc1                No
2  O=C(O)CCC(F)(F)C(F)(F)C(F)(F)C(F)(F)C(F)(F)C(F)(F)C(F)(F)F                No
3      O=C(O)C(F)(F)C(F)(F)C(F)(F)OC(F)(F)F                No
4  O=S(=O)(Cl)C(F)(F)C(F)(F)C(F)(F)C(F)(F)C(F)(F)C(F)(F)C(F)(F)C(F)(F)F                No
5  O=S(=O)(O)CCC(F)(F)C(F)(F)C(F)(F)C(F)(F)F                No

Just curious, what result did `Cc1cc(C)c(O)c(C(C)(C)C)c1` get here?
Yes

Just curious, what result did `CCN(CCO)S(=O)(=O)C(F)(F)C(F)(F)C(F)(F)C(F)(F)C(F)(F)C(F)(F)C(F)(F)C(F)(F)F` get here?
No

Just curious, what result did `O=C(O)CCC(F)(F)C(F)(F)C(F)(F)F` get here?
No

Just curious, what result did `NC(=O)C(F)(F)C(F)(F)C(F)(F)F` get here?
No

Just curious, what result did `Cc1ccc(S(=O)(=O)C(I)I)cc1` get here?
Yes

Just curious, what result did `C[C@]12CC[C@H]3C(=CCc4cc(O)ccc43)[C@@H]1CCC2=O` get here?
No
